These data points were gathered from ChEMBL document CHEMBL1201862.

Assay: P. falciparum Dd2 growth inhibitors, dose response, SYBR Green, cherry-picked samples (AID 1159567)
Assay type: functional, cell-based
The source made the active and inactive calls. Cut-off read from the data, not from the text of the source: actives have a measured AC50 and inactives only a lower limit.
Entries and their AC50
measured_endpoint: AC50

>>> df
                                smiles_repr  measured_endpoint            result
0  COc1ccc2c3c(n(C)c2c1)[C@H](CO)N(C(=O)c1ccccc1)CC31CCN(C(=O)c2ccccc2)CC1               AC50  7.29 µM (active)
1  COc1ccc(S(=O)(=O)N2CC[C@@H]3[C@H]2c2cc(-c4ccc(C#N)cc4)ccc2N[C@@H]3CO)cc1               AC50  9.46 µM (active)
2  CCCc1cn([C@H]2C[C@@H]3O[C@H](CO)CC[C@@H]3O[C@@H]2CCc2ccc(-c3ccc(OC)cc3)cc2)nn1               AC50  4.34 µM (active)
3  COc1cccc(CN2C[C@@H]3N[C@H](C2)[C@@H]3c2ccc(-c3cccc(C#N)c3)cc2)c1               AC50  3.66 µM (active)
